These data points were gathered from ChEMBL document CHEMBL4689842.

Kindly supply the reported Population Mitochondria Different-Phenotype (%) values for the records listed here.
# Test system: U2OS
# assayInfo: Multiplex assay against U2OS
# Assay type: toxicity, cell-based
# conditionContext: human, 24 h, 1 µM, compound concentration 1 uM, replicate 1
Entry format: amount then unit.

**Query** Record `Nc1ccc(C(=O)Nc2cccc(-c3nc(N4CCOCC4)c4oc5ncccc5c4n3)c2)cn1` : what is its Population Mitochondria Different-Phenotype (%) with U2OS?
**Result** 31%

**Query** Under U2OS: Population Mitochondria Different-Phenotype (%) value of `CC(=O)c1cc(-c2cc(C(=O)NC3CC3)ccc2C)c2ncccn12` ?
**Result** 5%

**Query** Notebook entry, U2OS assay: Population Mitochondria Different-Phenotype (%) of `COc1cc2c(Nc3ccc(NC(=O)c4ccccc4)cc3)ncnc2cc1OCCCN1CCOCC1` = ?
**Result** 39%

**Query** API: value(readout=Population Mitochondria Different-Phenotype (%), system=U2OS) for record `Cl.Cl.Nc1ncnc2c1c(-c1cccc(OCc3ccccc3)c1)cn2[C@H]1C[C@@H](CN2CCC2)C1`
**Result** 62%

**Query** Field: Population Mitochondria Different-Phenotype (%) (U2OS). Entry: `CNC(=O)c1nn(C)c2c1C(C)(C)Cc1cnc(Nc3ccc(N4CCN(C)CC4)cc3)nc1-2`
**Result** 92%

**Query** Find Population Mitochondria Different-Phenotype (%) (U2OS) for the entry `CNc1oc(-c2cccc3ccccc23)nc1C#N`
**Result** 3%

**Query** Lab request: please report Population Mitochondria Different-Phenotype (%) under test system U2OS for `O=C(O)c1ccc2cc(-c3ccc(O)c(C45CC6CC(CC(C6)C4)C5)c3)ccc2c1`
**Result** 13%

**Query** Record lookup: for U2OS, what Population Mitochondria Different-Phenotype (%) belongs to `CC(C)(C)c1cnc(CSc2cnc(NC(=O)C3CCNCC3)s2)o1` ?
**Result** 34%

**Query** Report Population Mitochondria Different-Phenotype (%) for CCC(=O)O[C@]1(C(=O)SCF)[C@H](C)C[C@H]2[C@@H]3C[C@H](F)C4=CC(=O)C=C[C@]4(C)[C@@]3(F)[C@@H](O)C[C@@]21C [FLUTICASONE PROPIONATE] tested on U2OS.
**Result** 5%

**Query** API: value(readout= Population Mitochondria Different-Phenotype (%), system= U2OS, query= `CC(C)N1CCC(C)(C)c2cc(C#Cc3ccc(C(=O)O)cc3)ccc21` )
**Result** 5%

====

# Test system: Fibroblast
# assayInfo: Multiplex assay against human fibroblast
# Format: toxicity, cell-based
# conditionContext: 12 h, 1 µM, compound concentration 1 uM, replicate 1
Population Fragmented Nuclei (%) below 30% gives Criterion not met; Population Fragmented Nuclei (%) at or above it gives Criterion met.

**Query** Is reported Population Fragmented Nuclei (%) greater than or equal to 30% here: `CC(C)(C)c1cnc(CSc2cnc(NC(=O)C3CCNCC3)s2)o1`
**Result** Criterion not met

**Query** Check the entry `CN(C)CCOc1ccc(-c2nc(-c3ccncc3)c(-c3ccc4c(c3)CC/C4=N\O)[nH]2)cc1` : does Population Fragmented Nuclei (%) equal or exceed 30%?
**Result** Criterion met

**Query** # check: Population Fragmented Nuclei (%) of `Nc1ccc(C(=O)Nc2cccc(-c3nc(N4CCOCC4)c4oc5ncccc5c4n3)c2)cn1` is greater than or equal to 30%
**Result** Criterion not met

**Query** In plain terms: is recorded Population Fragmented Nuclei (%) at least 30% for CCn1c(-c2nonc2N)nc2cnc(Oc3cccc(NC(=O)c4ccc(OCCN5CCOCC5)cc4)c3)cc21 [GSK-269962A] ?
**Result** Criterion not met

**Query** Given CCC(=O)O[C@]1(C(=O)SCF)[C@H](C)C[C@H]2[C@@H]3C[C@H](F)C4=CC(=O)C=C[C@]4(C)[C@@]3(F)[C@@H](O)C[C@@]21C [FLUTICASONE PROPIONATE] , state whether its Population Fragmented Nuclei (%) is at least 30%.
**Result** Criterion not met

**Query** hey, is Population Fragmented Nuclei (%) for this one >= 30%? `CCOc1cc2ncc(C#N)c(Nc3ccc(OCc4cccc(F)c4)c(Cl)c3)c2cc1NC(=O)/C=C/CN(C)C`
**Result** Criterion not met

====

# Tested on: U2OS
# assayInfo: Multiplex assay against U2OS
# Format: toxicity, cell-based
# conditionContext: human, 12 h, 1 µM, compound concentration 1 uM, replicate 1
readout: Population Mitotic Cells (%)
Lab book: enter the figure in %, no units written.

**Query** // Population Mitotic Cells (%) lookup, key: CCC(=O)O[C@]1(C(=O)SCF)[C@H](C)C[C@H]2[C@@H]3C[C@H](F)C4=CC(=O)C=C[C@]4(C)[C@@]3(F)[C@@H](O)C[C@@]21C [FLUTICASONE PROPIONATE]
**Result** 64

**Query** Fill blank: measured Population Mitotic Cells (%) of the compound `Nc1nc2c(c(N3CCNCC3)n1)CCC1=C2[C@@H]2CCCC[C@@H]2O1` is ____.
**Result** 65

**Query** Any idea what Population Mitotic Cells (%) was measured for `CCOc1cc(N2CCC(O)CC2)ccc1Nc1ncc2c(n1)N(C1CCCC1)CCC(=O)N2C` ?
**Result** 53

**Query** Request the reported Population Mitotic Cells (%) associated with `N#Cc1cnc(Nc2cc(NC[C@H]3CNCCO3)c(C(F)(F)F)cn2)cn1`
**Result** 81

**Query** // query Population Mitotic Cells (%) value for entry `CCCn1c(=O)c2[nH]c(C34CC5CC(CC3C5)C4)nc2n(CCC)c1=O`
**Result** 50

**Query** Recorded Population Mitotic Cells (%) for CC(C)Oc1ccc(C(=O)N[C@H](CNC(=O)CN(C)C)Cc2ccc(-c3cn4cccc([C@H](C)O)c4n3)cc2)cc1Cl [GSK-923295A] , please?
**Result** 72

**Query** What value of Population Mitotic Cells (%) has been recorded for this entry: `Cc1cc2c(cc1N1C(=O)c3cccc4c(CCCO)ccc(c34)C1=O)n(C)c(=O)n2C`
**Result** 50

**Query** What does the record list as Population Mitotic Cells (%) for `CNc1oc(-c2cccc3ccccc23)nc1C#N` ?
**Result** 63

**Query** // query Population Mitotic Cells (%) value for entry `Cl.Cl.Nc1ncnc2c1c(-c1cccc(OCc3ccccc3)c1)cn2[C@H]1C[C@@H](CN2CCC2)C1`
**Result** 66

**Query** Tell me the measured Population Mitotic Cells (%) of `O=C(O)c1ccc2cc(-c3ccc(O)c(C45CC6CC(CC(C6)C4)C5)c3)ccc2c1` , please.
**Result** 50

**Query** What measured Population Mitotic Cells (%) goes with `c1ccc2oc(-c3csc(C4CCN(Cc5nc6ncccc6[nH]5)CC4)n3)cc2c1` ?
**Result** 91

====

# Tested on: U2OS
# assayInfo: Multiplex assay against U2OS
# Type: toxicity, cell-based
# conditionContext: human, 48 h, 10 µM, compound concentration 10 uM, replicate 2
Would you please tag the item Fulfilled when its Population Tubulin-Different-Phenotype (%) is 50% or above, and Not fulfilled when it is below?

**Query** Please check the record `CC(C)N1CCC(C)(C)c2cc(C#Cc3ccc(C(=O)O)cc3)ccc21` and state if its Population Tubulin-Different-Phenotype (%) is at or above 50%.
**Result** Not fulfilled

**Query** Does the compound `COc1cc2c(NC3CCN(C(C)C)CC3)nc(N3CCC(F)(F)CC3)nc2cc1OCCCN1CCCC1` have recorded Population Tubulin-Different-Phenotype (%) that is 50% or more?
**Result** Fulfilled

**Query** Confirm if Population Tubulin-Different-Phenotype (%) reported for the compound `Cc1cc2c(cc1N1C(=O)c3cccc4c(CCCO)ccc(c34)C1=O)n(C)c(=O)n2C` is 50% or above.
**Result** Not fulfilled

**Query** Entry O=C(O)c1ccc2cc(-c3ccc(O)c(C45CC6CC(CC(C6)C4)C5)c3)ccc2c1 [O-DEMETHYLATED ADAPALENE] : is its Population Tubulin-Different-Phenotype (%) no less than 50%?
**Result** Not fulfilled

**Query** Is Population Tubulin-Different-Phenotype (%) for `COc1ccc(NS(=O)(=O)c2sc3ccc(Cl)cc3c2C)cc1N1CCNCC1.Cl` at or above 50%?
**Result** Fulfilled

**Query** Could you tell me if the measured Population Tubulin-Different-Phenotype (%) of CCC(=O)O[C@]1(C(=O)SCF)[C@H](C)C[C@H]2[C@@H]3C[C@H](F)C4=CC(=O)C=C[C@]4(C)[C@@]3(F)[C@@H](O)C[C@@]21C [FLUTICASONE PROPIONATE] reaches 50% or more?
**Result** Not fulfilled

**Query** Tell me whether Population Tubulin-Different-Phenotype (%) is at least 50% here: `Nc1nc2c(c(N3CCNCC3)n1)CCC1=C2[C@@H]2CCCC[C@@H]2O1`
**Result** Fulfilled

**Query** Could you tell me if the measured Population Tubulin-Different-Phenotype (%) of `CNc1oc(-c2cccc3ccccc23)nc1C#N` reaches 50% or more?
**Result** Not fulfilled

**Query** Please indicate if the recorded Population Tubulin-Different-Phenotype (%) for CCCn1c(=O)c2[nH]c(C34CC5CC(CC3C5)C4)nc2n(CCC)c1=O [ROLOFYLLINE] meets or exceeds 50%.
**Result** Fulfilled

**Query** Evaluate `Nc1ccc(C(=O)Nc2cccc(-c3nc(N4CCOCC4)c4oc5ncccc5c4n3)c2)cn1` : Population Tubulin-Different-Phenotype (%) at minimum 50%?
**Result** Fulfilled

**Query** Check if Population Tubulin-Different-Phenotype (%) >= 50% (inclusive). Item: `C1=N/C2=N/c3ccc(OCCN4CCCC4)c(c3)COC/C=C\COCc3cccc(c3)C(=C1)N2`
**Result** Fulfilled

**Query** Can `CC(=O)c1cc(-c2cc(C(=O)NC3CC3)ccc2C)c2ncccn12` be said to have Population Tubulin-Different-Phenotype (%) at or above 50%?
**Result** Not fulfilled

**Query** Is reported Population Tubulin-Different-Phenotype (%) greater than or equal to 50% here: CCc1cc2c(cc1CC)CC(NC[C@H](O)c1ccc(O)c3[nH]c(=O)ccc13)C2 [INDACATEROL]
**Result** Fulfilled

**Query** Given CC(C)Oc1ccc(C(=O)N[C@H](CNC(=O)CN(C)C)Cc2ccc(-c3cn4cccc([C@H](C)O)c4n3)cc2)cc1Cl [GSK-923295A] , state whether its Population Tubulin-Different-Phenotype (%) is at least 50%.
**Result** Fulfilled

**Query** I'd appreciate it if you could say whether Cc1nc(Cc2cccc(C(F)(F)F)c2)sc1-c1ccc(C(N)=O)nc1 [TP-024n] has Population Tubulin-Different-Phenotype (%) at least equal to 50%.
**Result** Not fulfilled
